Answer each item with its documented growth inhibition.
# RUN DESCRIPTION: NCI Yeast Anticancer Drug Screen. Data for the mec2-1 strain (AID 157)
# CONDITION DESCRIPTION: S. cerevisiae mec2-1 strain, at 5.0 µM (retest, dose inferred, filed as 0.5), stronger effect = higher value
The panel holds about 79,000 compounds, 15% with a hit somewhere; the sample as a whole holds those more often.
Write down the numeric answer in % and omit the unit.

Data request: Tell me the measured growth inhibition of O=C1/C(=C\c2ccc(Cl)cc2)SC2SC=C(c3ccc([N+](=O)[O-])cc3)N12 (stereo not drawn) , please.
Data returned: 2

Data request: And what about the compound "O=C(Nc1ccc(Cl)cc1)NS(=O)(=O)c1c(-c2ccccc2)oc2ccccc2c1=O" ?
Data returned: 6

Data request: Lookup "CC1=C(C#N)C(=O)N(C)C(=O)C1(Cl)Cl"
Data returned: 0

Data request: Thanks! And "CC(C)c1ccc2c(c1)CC[C@H]1[C@](C)(C(=O)O)CCC[C@]21C" ?
Data returned: 2

Data request: Entry "CC1=C(C(=O)Nc2ccccc2)C(c2ccc(Cl)c(Cl)c2)C(C(=O)Nc2ccccc2)=C(C)N1" please
Data returned: 21

Data request: And what about the compound "Clc1cc[c]([Sn]([O][Sn]([c]2ccc(Cl)cc2)([c]2ccc(Cl)cc2)[c]2ccc(Cl)cc2)([c]2ccc(Cl)cc2)[c]2ccc(Cl)cc2)cc1" ?
Data returned: 99

Data request: Moving on to the next compound: O=C1C=C(c2ccccc2)OC(c2ccccc2)C1 (stereo not drawn)
Data returned: -52

Data request: Request: "CCOc1ccc2nc(C)cc(C)c2c1"
Data returned: -23

Data request: Consider next the compound CC(C)C12CCC3(CCC4C(C)(C(=O)O)CCCC4(C)C3C1)C(CN)C2 (stereo not drawn) in the same way.
Data returned: 9

Data request: Repeat with CC1(C)OC2COC3(CNO)OC(C)(C)OC3C2O1 (stereo not drawn)
Data returned: -1

Data request: And for "Nc1cc(Br)c2cccnc2c1O" ?
Data returned: 44

Data request: Here is the next compound: "Cc1c2cc[n+](C)cc2c(C)c2c1[nH]c1ccc(Cl)cc12"
Data returned: 28

Data request: # repeat for "COc1ccc2c(c1)sc(/C=C/c1ccc(O)c3ncccc13)[n+]2C"
Data returned: 49

Data request: Here is the next compound: CC(CC(C#CCN(C)C)N(C)C)CC(C)(C)C (stereo not drawn)
Data returned: 1

Data request: Repeat for the following compound: CC(CCC(=O)O)[C@H]1CCC2[C@H]3C(CC[C@@]21C)[C@@]1(C)CCC(O)C[C@H]1C[C@@H]3O (stereo partly drawn)
Data returned: -13

Data request: Okay, and "CC(CCC(=O)O)(c1cc(Br)c(O)c(Br)c1)c1cc(Br)c(O)c(Br)c1" ?
Data returned: -1

Data request: Please give the result for "NC(=O)SCC(=O)Nc1ccccc1" too.
Data returned: -1

Data request: Moving on to the next compound: "Nc1cccc2c1[nH]c(=O)c1ccccc12"
Data returned: 5

* * *

# RUN DESCRIPTION: NCI Yeast Anticancer Drug Screen. Data for the sgs1 mgt1 strain (AID 161);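 note: 0% = growth of cultures given vehicle only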
# CONDITION DESCRIPTION: S. cerevisiae sgs1 mgt1 strain, at 5.0 µM (retest, dose inferred, filed as 0.5)
This is part of a sample that, as a whole, favours compounds with a hit. Of some 79,000 tested, about 15% had one in any assay. The source made the active and inactive calls. Cut-off read from the data, not from the text of the source: active = growth inhibition above about 70%; inactive = the rest.
The categories you may choose from are active, inactive

Data request: What call does the record list for COc1ccc(N2C(=O)C(=O)C(C(C)=O)C2=O)cc1 (centres undefined) ?
Data returned: inactive

Data request: Entry to check: CC1SC(c2ccc(Cl)cc2)N2C(=O)C(C)SC(c3ccc(Cl)cc3)N2C1=O (centres undefined)
Data returned: active

Data request: Another compound to check: "Cc1cc([N+](=O)[O-])c2nnnn2c1"
Data returned: inactive

Data request: Would you mind doing CN(C)CC(O)c1cc(-c2ccc(Cl)cc2)nc2c(Cl)cc(Cl)cc12 (centres undefined) as well?
Data returned: inactive

Data request: Let us now turn to "COc1cccc2c1N[S@](=O)S2"
Data returned: inactive

Data request: Also check c1cc2ccc1C1NCCCN1CCN1CCCNC1c1ccc(cc1)C1NCCCN1CCN1CCCNC21 (centres undefined)
Data returned: inactive

Data request: Now the same for COC(C(=O)O)c1ccccc1 (centres undefined)
Data returned: inactive

Data request: Record: "COc1ccc(N=Nc2ccc3oc(=O)c(C(=O)Nc4ccccc4C)cc3c2)cc1"
Data returned: inactive

Data request: Next record, please: "CCCCCCCCC1(OCCCS(=O)(=O)O)COc2ccccc2OCCOCCOc2ccccc2OC1"
Data returned: inactive

Data request: Okay, and "CCOc1c(N=Nc2ccccc2Cl)c(-c2ccccc2)nn1C(=S)S" ?
Data returned: inactive

Data request: Next compound up: COC(=O)/C(C#N)=C1\NC(=O)CC(c2ccccc2)C1C#N (centres undefined)
Data returned: inactive

Data request: Field entry: "Oc1ccc(SCc2cc(O)ccc2O)cc1"
Data returned: inactive

Data request: Repeat with "CC(C)c1ccc(O)c(Cc2cc(C(C)C)ccc2O)c1"
Data returned: inactive

Data request: Field entry: OC1CC2OC2C1O (centres undefined)
Data returned: inactive

Data request: Another compound to look at: "FC(F)(F)c1ccccc1NC(=S)SCc1ccc(Cl)cc1"
Data returned: inactive

Data request: Similarly, "CN(C)CCN(C)CCC(=O)/C=C/c1ccccc1" ?
Data returned: active

Data request: For "C=CCOc1cc(NC(=S)c2sccc2C)ccc1Cl" then?
Data returned: inactive

Data request: How about "O=c1cc(N=Nc2ccc(Cl)c(Cl)c2)[nH]c(=O)[nH]1" ?
Data returned: inactive

Data request: How about C=CCOC(=O)N(C(=O)OCC=C)C(Cc1ccc(O)cc1)C(=O)NNc1ccccc1 (centres undefined) ?
Data returned: inactive

Data request: Here is the next compound: "COc1ccc(C(=O)[O][Sn]([c]2ccccc2)([c]2ccccc2)[c]2ccccc2)c(OC)c1OC"
Data returned: active

Data request: Similarly, "c1nc2nc(N3CCOCC3)nc(N3CCCCC3)c2[nH]1" ?
Data returned: inactive

Data request: Follow-up item: "COc1ccc(Cc2nc3ccc(Cl)cc3[nH]2)cc1"
Data returned: inactive

Data request: Now the same for "O=[N+]([O-])c1ccc(C2=Nn3cnnc3SC2)o1"
Data returned: inactive

Data request: Now try "COc1ccc(Nc2nc3ccccc3s2)cc1" .
Data returned: inactive

Data request: For "Cc1cc(Br)cc(C(=O)Cl)c1O" then?
Data returned: inactive

Data request: Similarly, "Cc1c[nH]c2nc(C)n(-c3ccccc3)c(=N)c12" ?
Data returned: inactive

Data request: Same again, this time with CCC(CO)Nc1nc2cc(Br)ccc2c2ccc(Br)cc12 (centres undefined)
Data returned: inactive

Data request: "CC1(C)[C@@H]2CC[C@]1(C)[C@@H](OC(=O)CSC#N)C2" , same question.
Data returned: active

Data request: Okay, and "Cc1ccc(/C=C2\CCC/C(=C\c3ccc(O)c(CN4CCCCC4)c3)C2=O)cc1" ?
Data returned: inactive

Data request: Check "Cc1ccc(C(=O)OCC(C)C)cc1N=NN(C)C" too.
Data returned: inactive

Data request: Queued: "COc1ccc(/C=C2\CN(C)C/C(=C\c3ccc(OC)cc3)C2=O)cc1"
Data returned: inactive

Data request: Subsequent entry: "Clc1ccc(Oc2nc(Cl)nc3[nH]ncc23)cc1"
Data returned: inactive

Data request: And what about the compound "O=S(=O)(c1cc(Cl)c(Cl)cc1Cl)N(CCCCCN(S(=O)(=O)c1cc(Cl)c(Cl)cc1Cl)S(=O)(=O)c1cc(Cl)c(Cl)cc1Cl)S(=O)(=O)c1cc(Cl)c(Cl)cc1Cl" ?
Data returned: inactive

Data request: Then this compound: CCCCN(CCCC)CC(O)c1cc(-c2ccc(Cl)cc2)nc2cc(C)ccc12 (centres undefined)
Data returned: inactive

Data request: Also "CN(C)CCCN1c2ccc3ccccc3c2Sc2cccc(Cl)c21" ?
Data returned: inactive

Data request: Follow-up entry: "Cc1ccc(S(=O)(=O)Nc2ccccc2C=O)cc1"
Data returned: inactive

Data request: Request: "CCCCCCCCCCCCS"
Data returned: inactive

Data request: // same read-out, input: "Cc1cc(C)nc(/C=C/c2ccccc2)c1"
Data returned: inactive

Data request: // query: "Cc1ccc(/C=N/Nc2ccc([N+](=O)[O-])cc2[N+](=O)[O-])cc1"
Data returned: inactive

Origin of measurements: PubChem BioAssay (NCI)
